- Test system: EW-3 (Ewing's Sarcoma)
- PROCEDURE_SUMMARY: combination Emax (second highest fraction inhibited in the dose matrix, 72 h); higher = more inhibition; extreme values may be limits of the assay
# combination Emax annotations
Number, no unit, nothing else.

// worked examples, combination Emax included
>  <MOLECULE>
CN(CCO)CC[C@H](CSc1ccccc1)Nc1ccc(S(=O)(=O)NC(=O)c2ccc(N3CCC([C@@H](O)c4ccccc4-c4ccc(Cl)cc4)CC3)cc2)cc1S(=O)(=O)C(F)(F)F [AZD4320] + Nc1ccn([C@@H]2O[C@H](CO)[C@@H](O)C2(F)F)c(=O)n1 [Gemcitabine] (first compound max 1 µM, 7x7, partner max 0.3 µM)

>  <combination Emax>
0.91

$$$$
>  <MOLECULE>
NC1(C(=O)N[C@@H](CCO)c2ccc(Cl)cc2)CCN(c2ncnc3[nH]ccc23)CC1 [Capivasertib] + COc1nnc2ccc(N3CCC(c4ccc(OCCN5CCN(C)C(=O)[C@H]5C)cc4)CC3)nn12 [AZD5153] (first compound max 10 µM, 7x7, partner max 1 µM)

>  <combination Emax>
0.837

$$$$
>  <MOLECULE>
O=C(c1cc(Cc2n[nH]c(=O)c3ccccc23)ccc1F)N1CCN(C(=O)C2CC2)CC1 [Olaparib] + CN(CC[C@H](CSC1=CC=CC=C1)NC2=C(C=C(C=C2)S(=O)(=O)NC(=O)C3=CC=C(C=C3)N4CCC(CC4)[C@H](C5=CC=CC=C5C6=CC=C(C=C6)Cl)O)S(=O)(=O)C(F)(F)F)CCO [AZD4320] (first compound max 10 µM, 7x7, partner max 1 µM)

>  <combination Emax>
0.904

$$$$
>  <MOLECULE>
N#Cc1cnc(Nc2cc(NC[C@H]3CNCCO3)c(C(F)(F)F)cn2)cn1 [SRA737] + CCc1c2c(nc3ccc(O)cc13)-c1cc3c(c(=O)n1C2)COC(=O)[C@]3(O)CC [SN-38] (first compound max 10 µM, 7x7, partner max 0.3 µM)

>  <combination Emax>
0.865

$$$$
>  <MOLECULE>
COc1cccc(OCCCN)c1-c1cc(Nc2cnc(C#N)cn2)n[nH]1 [Prexasertib] + CN(C)CCCOc1ccc(-c2ccc3ncc4c(c3c2)n(C2CCOCC2)c(=O)n4C)cn1 [AZD0156] (first compound max 1 µM, 7x7, partner max 1 µM)

>  <combination Emax>
0.683

$$$$

Lookup: Return value of combination Emax for input CN(CCO)CC[C@H](CSc1ccccc1)Nc1ccc(S(=O)(=O)NC(=O)c2ccc(N3CCC([C@@H](O)c4ccccc4-c4ccc(Cl)cc4)CC3)cc2)cc1S(=O)(=O)C(F)(F)F [AZD4320] + Cn1cnc2c(F)c(Nc3ccc(Br)cc3Cl)c(C(=O)NOCCO)cc21 [Selumetinib] (first compound max 1 µM, 7x7, partner max 3 µM) , no commentary.
Found: 0.906

Lookup: Return value of combination Emax for input NC1(C(=O)N[C@@H](CCO)c2ccc(Cl)cc2)CCN(c2ncnc3[nH]ccc23)CC1 [Capivasertib] + CC(=O)c1c(C)c2cnc(Nc3ccc(N4CCNCC4)cn3)nc2n(C2CCCC2)c1=O [Palbociclib] (first compound max 10 µM, 7x7, partner max 10 µM) , no commentary.
Found: 0.414

Origin of measurements: the supplement of paper PMC11061612
